These data points were gathered from ChEMBL document CHEMBL5223064.

# Assay Remarks: Bioavailability in CD-1 mouse at 20 mg/kg, ip measured for 24 hrs by LC-MS/MS analysis
# Format: ADME, organism-based
# Recorded Conditions: in vivo

Entry Smiles | bioavailability [%]
O=C[C@H](C[C@@H]1CCNC1=O)NC(=O)[C@H](Cc1cccc(F)c1)NC(=O)c1cc2ccccc2[nH]1 | 80
